Attribute: fraction unbound
measurementDescription: Human blood binding (fub = fup/BPR)
Assay type: in vitro ADME
recordedConditions: fup divided by BPR
Method: Compound 1 has been evaluated according to methods well known in the art, for its ability to partition between human plasma and blood. Based on the observed partitioning and plasma protein binding, the blood binding was estimated based on human blood unbound fraction (fub)=human plasma unbound fraction (fup)/human blood-to-plasma partition ratio (BPR). Human blood unbound fraction (fub) was calculated by dividing fup by BPR.

1) C[C@@]1(O)CCC[C@H]1n1c(=O)c(CC(F)F)cc2cnc(NC3CCN(S(N)(=O)=O)CC3)nc21    0.0022

Switching to the query record.
Input: Let me know recorded fraction unbound for C[C@@]1(O)CCC[C@H]1n1c(=O)c(C(F)F)cc2cnc(NC3CCN(S(C)(=O)=O)CC3)nc21 [Compound 2, reference compound] , thanks.
Output: 0.32

* * *

measurementDescription: Human blood-to-plasma partition ratio (BPR)
Assay type: in vitro ADME
Set-up: dose or concentration left out as unconfirmed
recordedConditions: fresh whole blood, 37° C.
testReadout: blood plasma ratio at 1 h
The answer should be a number; do not append a unit.

Input: Let me know recorded blood plasma ratio at 1 h for C[C@@]1(O)CCC[C@H]1n1c(=O)c(CC(F)F)cc2cnc(NC3CCN(S(N)(=O)=O)CC3)nc21 , thanks.
Output: 79

* * *

Tested on: MCF7 parental
measurementDescription: Cell proliferation assay (CYQUANT, 7 days), MCF7 parental
Assay type: cell-based
recordedConditions: Homo sapiens, MCF7, 168 h, read-out: IC50 ± SEM, proliferation inhibition
testReadout: pIC50
Here pIC50 is given on a logarithmic scale as minus log10 of the concentration in mol/L.

Input: Let me know recorded pIC50 for C[C@@]1(O)CCC[C@H]1n1c(=O)c(C(F)F)cc2cnc(NC3CCN(S(C)(=O)=O)CC3)nc21 [Compound 2, reference compound] , thanks.
Output: 7.41

* * *

System: HCC1428 parental
measurementDescription: Cell proliferation assay (CYQUANT, 7 days), HCC1428 parental
Assay type: cell-based
recordedConditions: Homo sapiens, HCC1428, 168 h, read-out: IC50 ± SEM, proliferation inhibition
testReadout: IC50 (nM)
Report the figure in nM without appending any unit label.

Input: Let me know recorded IC50 for C[C@@]1(O)CCC[C@H]1n1c(=O)c(C(F)F)cc2cnc(NC3CCN(S(C)(=O)=O)CC3)nc21 [Compound 2, reference compound] , thanks.
Output: 96.7

* * *

System: A549
measurementDescription: Cell proliferation assay (CYQUANT, 7 days), A549
Format: cell-based
recordedConditions: Homo sapiens, 168 h; A549; 7 days; mean; read-out: IC50 ± SEM, proliferation inhibition
testReadout: pIC50
Here pIC50 is given on a logarithmic scale as minus log10 of the concentration in mol/L.

Input: Let me know recorded pIC50 for C[C@@]1(O)CCC[C@H]1n1c(=O)c(CC(F)F)cc2cnc(NC3CCN(S(N)(=O)=O)CC3)nc21 , thanks.
Output: 6.92

* * *

System: MCF7 PalboR
measurementDescription: Cell proliferation assay (CYQUANT, 7 days), MCF7 PalboR
Type: cell-based
recordedConditions: Homo sapiens, MCF7, 168 h, read-out: IC50 ± SEM, proliferation inhibition
Description: Cellular CDK activity of Compound 1 and PF-06873600 were assessed in human CCNE1-amplified ovarian cancer cell line model OVCAR3 and human ER+ breast cancer cell line model MCF7 cells. […] Functional effects were measured in a 7-day anti-proliferation assay in one human ovarian cancer (OVCAR3), two human ER+ breast cancer (MCF7 and T47D) and three human non-small cell lung cancer (NCIH2087, NCIH358 and A549) cell line models. […]
testReadout: pIC50
Here pIC50 is given on a logarithmic scale as minus log10 of the concentration in mol/L.

Input: Let me know recorded pIC50 for C[C@@]1(O)CCC[C@H]1n1c(=O)c(C(F)F)cc2cnc(NC3CCN(S(C)(=O)=O)CC3)nc21 [Compound 2, reference compound] , thanks.
Output: 6.95

Every entry's value here was drawn from patent US20240140947A1.
